Taken from patent US9663511B2.

- measurementTarget: S1P2 receptor (Homo sapiens (Human), UniProt O95136)
- Sequence (O95136 whole entry): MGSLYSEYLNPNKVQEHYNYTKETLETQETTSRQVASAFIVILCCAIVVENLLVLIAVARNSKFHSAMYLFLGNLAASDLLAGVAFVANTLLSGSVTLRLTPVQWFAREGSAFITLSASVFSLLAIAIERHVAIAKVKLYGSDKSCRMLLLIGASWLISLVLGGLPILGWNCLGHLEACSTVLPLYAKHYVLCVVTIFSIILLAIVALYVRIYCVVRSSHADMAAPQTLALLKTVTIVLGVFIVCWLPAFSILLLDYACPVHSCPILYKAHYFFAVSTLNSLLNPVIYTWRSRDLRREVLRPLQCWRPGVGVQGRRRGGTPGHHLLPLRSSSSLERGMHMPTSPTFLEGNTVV
- protocol: Antagonist assay (FLIPR TETRA, inhibition of reference agonist EC80) on S1P2
- Format: cell-based
- measurementParameters: tested as the citrate salt
- Experimental: Antagonist percentage inhibition determinations were obtained by assaying sample compounds and referencing the control (EC80) wells for each profiled (GPCR) which evaluated binding to S1P2 and S1P5 receptors. The samples were run using a single addition assay protocol. The protocol design is as follows. […] Using the EC80 values that were determined real-time, stimulated all pre-incubated sample compounds and reference antagonists (if applicable) were compared with the EC80 values of reference agonist. […]
pIC50: −log10 of the molar value.
Categorize each record by its pIC50 using L (below 7), M (7 to below 8), H (8 or more)

CCOc1cc(NC(=O)NN(CCO)c2cc(C(C)C)c3c(C)nn(C)c3n2)cc(Cl)n1	M
C=CCn1nc(C)c2c(C(C)C)cc(ONC(=O)Nc3cc(Cl)nc(Cl)c3)nc21	M
CCN(C)c1cc(NC(=O)NN(CCO)c2cc(C(C)C)c3c(C)nn(C)c3n2)cc(Cl)n1	M
Cc1nn(C)c2nc(N(CCO)NC(=O)Nc3cc(Cl)cc(C(F)(F)F)c3)cc(C(C)C)c12	L
Cc1sc(NC(=O)NN(CCO)c2cc(C(C)C)c3c(C)nn(C)c3n2)cc1Cl	L
CC(C)c1cc(NNC(=O)Nc2cc(Cl)nc(Cl)c2)nc2c(CCCO)nn(C)c12	H
C=CCn1nc(C)c2c(C(C)C)cc(NNC(=O)Nc3cc(Cl)nc(Cl)c3)nc21 [Compound 1]	H
Cc1nn(C)c2nc(N(CCO)NC(=O)Nc3cnc(Cl)c(Cl)c3)cc(C(C)C)c12	L

Incoming: Given CCNc1cc(NC(=O)NN(CCO)c2cc(C(C)C)c3c(C)nn(C)c3n2)cc(Cl)n1 , name the class its pIC50 places it in.
Outgoing: H

Incoming: Given Cc1nn(C)c2nc(N(CCO)NC(=O)Nc3cc(Cl)no3)cc(C(C)C)c12 , name the class its pIC50 places it in.
Outgoing: L

Incoming: Given C=CCn1nc(C)c2c(C(C)C)cc(N(CC(=O)O)NC(=O)Nc3cc(Cl)nc(Cl)c3)nc21 , name the class its pIC50 places it in.
Outgoing: L

Incoming: Given Cc1nn(C)c2nc(N(CCO)NC(=O)Nc3ccc(Cl)nc3Cl)cc(C(C)C)c12 , name the class its pIC50 places it in.
Outgoing: L

====

- protocol: Blood concentrations and pharmacokinetics after 1 mg/kg i.v. in mice
- Type: in vivo, mouse
- measurementParameters: mouse, in vivo, iv, 1 mg/kg, mouse blood, individual mice, read-out: AUC0-tlast
reportedEndpoint: AUC(0-t) (ng·h/mL)
Reply with just the number (in ng·h/mL).

Incoming: So what does the record say about AUC(0-t) for Cc1nn(C)c2nc(NNC(=O)Nc3cc(Cl)nc(Cl)c3)cc(C(C)C)c12 ?
Outgoing: 102

====

- measurementTarget: S1P2 receptor (Homo sapiens (Human), UniProt O95136)
- protocol: Antagonist assay (FLIPR TETRA, inhibition of reference agonist EC80) on S1P2
- measurementParameters: tested as the citrate salt
reportedEndpoint: pIC50
# reply with the number alone; pIC50 is -log10 of concentration in mol/L

Cc1nn(C)c2nc(N(CCO)NC(=O)Nc3cc(Cl)nc(Cl)c3)cc(C(C)C)c12 [Compound 9]	8.15

Shifting focus to the compound that follows.
Incoming: So what does the record say about pIC50 for CCCOc1cc(NC(=O)NN(CCO)c2cc(C(C)C)c3c(C)nn(C)c3n2)cc(Cl)n1 [Compound 36] ?
Outgoing: 8.00
